- System: collagen (Coll) induced platelet aggregation
- PROTOCOL SUMMARY: in vitro inhibition of collagen (Coll) induced platelet aggregation, aggregometer method of Born, rat platelet rich plasma
- Assay type: cell-based
- RUN CONDITIONS: rat citrated platelet rich plasma, 50% inhibition
Would you mind telling me the reported pEC50 of each entry?
Units for pEC50: none; it is -log10 of a concentration expressed in mol/L.

input: Given the compound CCCc1sc2c(c1C)CN1CC(=O)NC1=N2 , what is its reported pEC50?
output: 7.10

input: Record: Cc1cccc2c1CN1CC(=O)NC1=N2 [BL-3459, reference compound]
output: 6.10

input: Record: CC1C(=O)NC2=Nc3sc4c(c3CN21)CCCC4 (stereo not drawn)
output: 6.22

input: Record: Cc1csc2c1CN1CC(=O)NC1=N2
output: 4.82

input: Record: Cc1sc2c(c1C)CN1CC(=O)NC1=N2
output: 6.00

input: Record: O=C1CN2Cc3sccc3N=C2N1
output: 5.00

input: Record: CCCc1c(CC)sc2c1CN1CC(=O)NC1=N2
output: 5.66

input: Record: CCCCCc1sc2c(c1C)CN1CC(=O)NC1=N2
output: 6.72

input: Record: O=C1CN2Cc3c(sc4c3CCCC4)N=C2N1
output: 7.00

input: Record: Cc1scc2c1CN1CC(=O)NC1=N2
output: 5.46

input: Record: Cc1c(Cl)sc2c1CN1CC(=O)NC1=N2
output: 5.72

input: Record: O=C1CN2Cc3c(sc4c3CCCCC4)N=C2N1
output: 4.82

FYI, the data here is from patent US4284773A.
